# measurement.target: T1, CD27 expressed on the cell surface (HT1080_CD27 cells) (human, UniProt P26842 20-260); note: test concentration or dose not given here
# T1 sequence (looked up): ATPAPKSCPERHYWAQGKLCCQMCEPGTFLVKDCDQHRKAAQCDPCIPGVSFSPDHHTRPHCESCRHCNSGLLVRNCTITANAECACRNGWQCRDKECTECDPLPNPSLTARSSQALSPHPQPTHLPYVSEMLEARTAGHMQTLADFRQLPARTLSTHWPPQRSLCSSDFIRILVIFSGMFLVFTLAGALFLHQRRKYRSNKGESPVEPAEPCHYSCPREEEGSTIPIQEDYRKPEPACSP
# experiment: cell-based or functional assay
measure.name: IL-8 [abs. corr.] (abs. corr.)
Numeric answer only, unit abs. corr. assumed.

Examples with answers:
P018.S.05.A.H02 (antibody, V domains shown, V regions on human Ig constant parts; also called AB27_94) VH: QEQLEESGGRLVTPGGTLTLTCTASGFSLNSYDMSWVRQAPGKGLEWIGYIWSDGNTDYASWAAGRFTASRASTTVDLKMTSLTTEDTATYFCARGYTGFFLWGPGTLVTVSS VL: DVVMTQTPSSVSAAVGGTVTIKCQASQSIGSSYLSWYQQKPGQPPKLLIYEASTLASGVPSRFKGSGSGTEFTLTISDLESDDAATYYCQCTYYGGSWRVAFGGGTEVVVK	0.369
P018.S.03.A.D02 (antibody, V domains shown, V regions on human Ig constant parts; also called AB27_47) VH: QSVEESGGRLVTPGTPLTLTCTVSGLSLSSYDMSWVRQAPGKGLEWIGYIWSGGTTDYASWAKGRFTISKTSTTVDLKIISPTTEDTATYFCARGYVEFDLWGPGTLVTVSS VL: DPVLTQTPPSVSAAVGGTVTINCQSSQSLYSNNYLSWYQQKPGQPPKVLIWPASSLASGVPSRFKGSGSGTQFTLTISELQSDDAATYYCQGTFYDSGWLSTFGGGTEVVVK	0.463

Switching to the query record.
Data request: Param item = P018.S.02.A.F05 (antibody, V domains shown, V regions on human Ig constant parts; also called AB27_35) VH: QEQLVESGGDLVKPEGSLTLTCTASGFSFSSSYYMSWVRQAPGKGLEWIACIDTVDNYTYYASWAKGRFTISKTSSTTVSLQMTSLTAADTATYFCARERIAYNTDYFNLWGPGTLVTVSS VL: AQVLTQTPSPVSAAVGGTVTISCQSSQSLYNYNNLAWYQQKPGQPPKLLIYSASNLASGVPSRFGGSGSGTQFTLTISDLQSDDAATYYCQGYYSGAVYTFGGGTEVVVK ; retrieve measured IL-8 [abs. corr.].
Data returned: 0.395
